- Test system: BDF1 mice, P388 leukemia ip, median survival T/C
- Assay info: NCI In Vivo Anticancer Drug Screen. Data for tumor model P388 Leukemia (intraperitoneal) in B6D2F1 (BDF1) mice
- Condition details: endpoint: median survival time; dose: 100.0 mg/kg/injection; schedule: Q01DX009 (ip); vehicle: Klucel (hydroxypropylcellulose) (HPC); higher = longer survival
Toxic doses and inconclusive results are not listed.
Measured parameter: T/C

Cc1cccc(CSc2ncnc3nc[nH]c23)n1    91 % of control
O=[N+]([O-])c1ccc(S(=O)c2ccc([N+](=O)[O-])cc2)cc1    100 % of control
CC1CCCC[N-]1.CC1CCCC[N-]1.[Cl][Pt+2][Cl] (stereo unspecified)    97 % of control
CCOc1ccccc1NC1=C(OC)C(=O)C(Nc2ccccc2OCC)=C(OC)C1=O    100 % of control
C1CC[N-]CC1.C1CC[N-]CC1.[I][Pt+2][I]    93 % of control
N#CCCN1c2ccccc2Sc2ccccc21    105 % of control
